Each recorded value in this set is attributed to patent US10640497B2.

Below, each entry is listed with its recorded melting point.

Example compounds with recorded melting point:
{"compound": "CN1CC(=O)N(Cc2ccc(-c3noc(C(F)(F)F)n3)cc2)CC1=O", "endpoint.result": "134 to 142 °C"}
{"compound": "O=C1CCCCN1Cc1ccc(-c2noc(C(F)(F)F)n2)nc1", "endpoint.result": "80 to 89 °C"}
{"compound": "CON1CCN(c2ccc(-c3noc(C(F)(F)F)n3)cc2)C1=O", "endpoint.result": "185 to 190 °C"}
{"compound": "O=C1CCON1Cc1ccc(-c2noc(C(F)(F)F)n2)cc1", "endpoint.result": "54 to 58 °C"}
{"compound": "O=C1CCCCCN1Cc1ccc(-c2noc(C(F)(F)F)n2)c(F)c1", "endpoint.result": "80 to 84 °C"}
{"compound": "CS(=O)(=O)N1CCN(Cc2ccc(-c3noc(C(F)(F)F)n3)cc2)C(=O)C1", "endpoint.result": "155 to 160 °C"}

Asked: Can you look up the measured melting point of CN(C)C(=O)N1CCN(Cc2ccc(-c3noc(C(F)(F)F)n3)cc2)C(=O)C1 for me?
Given back: 111 to 114 °C

Asked: What value of melting point has been recorded for this entry: CC1CCN(Cc2ccc(-c3noc(C(F)(F)F)n3)cc2)C1=O (centres unmarked)
Given back: 83 to 88 °C

Asked: Reported melting point, compound CNC(=O)N1CC(=O)N(Cc2ccc(-c3noc(C(F)(F)F)n3)cc2)C(=O)C1 : ____
Given back: 148 to 153 °C

Asked: Which melting point value is on record for O=C1CCON1c1ccc(-c2noc(C(F)(F)F)n2)cc1 ?
Given back: 74 to 77 °C

Asked: What measured melting point goes with O=C1CCCN1c1ccc(-c2noc(C(F)(F)F)n2)cc1 ?
Given back: 151 to 153 °C

Asked: Which melting point value is on record for O=C1CCC(=O)N1Cc1ccc(-c2noc(C(F)(F)F)n2)cc1 ?
Given back: 113 to 117 °C

Asked: I have this compound here, CCOC(=O)N1CC(=O)N(Cc2ccc(-c3noc(C(F)(F)F)n3)cc2)C(=O)C1 , and I need its recorded melting point.
Given back: 89 to 92 °C

Asked: # input compound: O=C1CCCN1Cc1ccc(-c2noc(C(F)(F)F)n2)cc1F ; wanted: its melting point
Given back: 55 to 60 °C

* * *

melting point reference

Worked examples, 3 compounds total:
{"compound.smiles": "O=C1CCON1Cc1c(F)cc(-c2noc(C(F)(F)F)n2)cc1F", "endpoint.result": "75 to 80 °C"}
{"compound.smiles": "COCCNC(=O)N1CCN(Cc2ccc(-c3noc(C(F)(F)F)n3)cc2)C(=O)C1", "endpoint.result": "120 to 128 °C"}
{"compound.smiles": "CC1(C)CCCN(Cc2ccc(-c3noc(C(F)(F)F)n3)c(F)c2)C1=O", "endpoint.result": "69 to 73 °C"}

Asked: Name the recorded melting point for CN(C)C(=O)N1CC(=O)N(Cc2ccc(-c3noc(C(F)(F)F)n3)cc2)C(=O)C1 .
Given back: 138 to 141 °C

* * *

Tested on: Puccinia recondita f. sp. tritici
experimental.details: Fungicidal activity against Puccinia recondita f. sp. tritici, wheat, leaf disc preventative (brown rust)
Type: in vivo
condition.details: foliar, wheat leaf segments, preventative (inoculated 1 day after application), 7-9 days after application, compared to untreated control
pest or weed control at 200 ppm reference

{"compound": "O=C1CCCCCN1Cc1ccc(-c2noc(C(F)(F)F)n2)c(F)c1 [Compound A-69]", "pest or weed control at 200 ppm": "≥ 80%"}
{"compound": "O=C1CCCON1Cc1ccc(-c2noc(C(F)(F)F)n2)cc1 [Compound A-37]", "pest or weed control at 200 ppm": "≥ 80%"}
{"compound": "O=C1CCCCN1Cc1ccc(-c2noc(C(F)(F)F)n2)cn1 [Compound A-12]", "pest or weed control at 200 ppm": "≥ 80%"}

Asked: State the recorded pest or weed control at 200 ppm for this entry: O=C1CCCN1Cc1ccc(-c2noc(C(F)(F)F)n2)cc1 [Compound A-1]
Given back: ≥ 80%

Asked: Look at this compound and give its reported pest or weed control at 200 ppm. CC1(C)CC(=O)N(Cc2ccc(-c3noc(C(F)(F)F)n3)cc2)C(=O)C1 [Compound A-11]
Given back: ≥ 80%

Asked: So what does the record say about pest or weed control at 200 ppm for O=C1CCON1Cc1ccc(-c2noc(C(F)(F)F)n2)c(F)c1F [Compound A-66] ?
Given back: ≥ 80%

Asked: I'd like to know its pest or weed control at 200 ppm. The compound in question is O=C1CCCN1Cc1ccc(-c2noc(C(F)(F)F)n2)cc1F [Compound A-22]
Given back: ≥ 80%

Asked: Field request: pest or weed control at 200 ppm | item: CC1CCC(=O)N1Cc1ccc(-c2noc(C(F)(F)F)n2)cc1 (stereo not drawn) [Compound A-13]
Given back: ≥ 80%

Asked: For O=C1CCC(C(F)F)N1Cc1ccc(-c2noc(C(F)(F)F)n2)cc1 (stereo not drawn) [Compound A-21] , what is its reported pest or weed control at 200 ppm?
Given back: ≥ 80%

* * *

melting point values, listed per item

Illustrative cases are given below, each with its answer.
{"molecule": "O=C1C2C=CC(C2)N1Cc1ccc(-c2noc(C(F)(F)F)n2)cc1 (stereo not shown)", "melting point": "50 to 53 °C"}
{"molecule": "CC(C)(C)OC(=O)N1CCN(Cc2ccc(-c3noc(C(F)(F)F)n3)cc2)C(=O)C1", "melting point": "96 to 99 °C"}
{"molecule": "CNC(=O)N1CCN(Cc2ccc(-c3noc(C(F)(F)F)n3)cc2)C(=O)C1", "melting point": "114 to 118 °C"}

Field: next molecule
Asked: melting point lookup needed for CC(C)(C)OC(=O)N1CC(=O)N(Cc2ccc(-c3noc(C(F)(F)F)n3)cc2)C(=O)C1 , thanks.
Given back: 94 to 102 °C

* * *

Catalogue of melting point readings, one per entry.

{"compound": "CC(=O)N1CC(=O)N(Cc2ccc(-c3noc(C(F)(F)F)n3)cc2)C(=O)C1 [Compound A-55]", "endpoint.result": "111 to 114 °C"}
{"compound": "O=S1(=O)CCCN1Cc1ccc(-c2noc(C(F)(F)F)n2)cc1 [Compound B-1]", "endpoint.result": "69 to 73 °C"}
{"compound": "O=C1CCCC(=O)N1Cc1ccc(-c2noc(C(F)(F)F)n2)cc1 [Compound A-49]", "endpoint.result": "104 to 108 °C"}
{"compound": "O=C1CCON1Cc1ccc(-c2noc(C(F)(F)F)n2)c(F)c1 [Compound A-68]", "endpoint.result": "86 to 89 °C"}

From here, focus on the item given below.
Asked: Which melting point is listed for O=C1CNC(=O)N1Cc1ccc(-c2noc(C(F)(F)F)n2)cc1 [Compound A-65] ?
Given back: 200 to 203 °C
